- TGT: PAR2 (Mus musculus, UniProt P55086)
- Construct: orally administered to C57BL/6J male mice (Charles River), 6-10 weeks of age; tissue Charles River; host or cells: Living C57BL/6J male mice (in vivo; saliva secretion)
- Sequence (P55086 26-399): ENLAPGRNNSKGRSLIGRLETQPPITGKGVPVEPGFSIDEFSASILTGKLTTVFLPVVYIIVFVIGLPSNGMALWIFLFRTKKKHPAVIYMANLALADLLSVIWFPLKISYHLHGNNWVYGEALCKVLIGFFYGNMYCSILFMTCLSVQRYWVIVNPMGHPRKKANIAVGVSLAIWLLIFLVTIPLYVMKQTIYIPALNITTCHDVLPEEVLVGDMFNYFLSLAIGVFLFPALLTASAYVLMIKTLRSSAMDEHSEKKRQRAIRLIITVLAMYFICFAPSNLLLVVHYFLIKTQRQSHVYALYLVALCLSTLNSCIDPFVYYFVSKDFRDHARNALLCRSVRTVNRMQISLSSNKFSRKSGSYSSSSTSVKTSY
- PROTOCOL DETAILS: Measurement of PAR2 agonist (SLIGRL-NH2)-induced salivation in mouse
- Assay type: in vivo
- MEASUREMENT CONDITIONS: C57BL/6J male mice, 0.3 mg/mL solution 10 mL/kg orally, 60 min before SLIGRL-NH2 i.p., saliva collected 10 min
PROPERTY LABEL: Inhibitory activity on the PAR2-dependent saliva secretion (%)

INSERT INTO results (compound, observed_measurement) VALUES
  ('CO[C@H]1CN(C(=O)c2cc3nc(-c4cc(F)c(F)c(F)c4)cc(N(C)c4c(C)cccc4C)n3n2)CC[C@H]1CC(=O)O (relative stereo)', 91.3),
  ('CC(C)CN(c1cc(-c2cc(F)c(F)c(F)c2)nc2cc(C(=O)N(C)[C@H](C)CC(=O)O)nn12)[C@H](C)C(C)C', 96.0),
  ('COc1cccc(C)c1N(C)c1cc(-c2cc(F)c(F)c(F)c2)nc2cc(C(=O)N3CC[C@@H](CC(=O)O)[C@@H](F)C3)nn12 (relative stereo)', 94.5);

====

- TGT: PAR2 (Homo sapiens, UniProt P55085)
- Construct: Human embryonic kidney cell line HEK293 cells cultured using DMEM culture medium; endogenous in cells; host or cells: HEK293
- Sequence (P55085 26-397): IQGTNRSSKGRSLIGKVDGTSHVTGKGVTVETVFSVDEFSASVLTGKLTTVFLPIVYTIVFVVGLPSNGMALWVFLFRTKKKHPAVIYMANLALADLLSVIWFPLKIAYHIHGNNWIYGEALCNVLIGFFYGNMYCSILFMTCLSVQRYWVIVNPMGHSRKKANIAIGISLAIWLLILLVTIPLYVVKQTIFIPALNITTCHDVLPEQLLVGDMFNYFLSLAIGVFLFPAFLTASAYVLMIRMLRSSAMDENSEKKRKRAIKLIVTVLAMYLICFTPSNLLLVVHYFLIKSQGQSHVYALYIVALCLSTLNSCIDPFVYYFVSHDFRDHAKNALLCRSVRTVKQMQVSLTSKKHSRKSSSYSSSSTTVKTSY
- PROTOCOL DETAILS: Intracellular calcium concentration measurement (trypsin-induced calcium elevation, FDSS6000)
- Type: cell-based
- MEASUREMENT CONDITIONS: HEK293 cells, trypsin 5 U/mL as agonist, test compound added 30 min before measurement; read-out: Inhibitory activity on intracellular calcium elevation (IC50 (nM))
PROPERTY LABEL: IC50 (nM)

Some molecules with recorded IC50:
INSERT INTO results (molecule, property_label, observed_measurement) VALUES
  ('CO[C@H]1CN(C(=O)c2cc3nc(-c4ccc(Cl)c(F)c4)cc(N(C)c4c(C)cccc4Cl)n3n2)CC[C@H]1CC(=O)O (relative stereo) [Example 11]', 'IC50', 6.88),
  ('CC(C)CN(c1cc(-c2cc(F)c(F)c(F)c2)nc2cc(C(=O)N(C)[C@H](C)CC(=O)O)nn12)[C@H](C)C(C)C [Example 9]', 'IC50', 4.9),
  ('Cc1n[nH]c(C(=O)N2CCN(C(=O)c3cn4nc(-c5ccc(F)cc5)cc(C(C)(C)C)c4n3)C(C)(C)C2)n1 [Comparative Compound, reference compound]', 'IC50', 24.2);

[I] Cc1cccc(C)c1N(C)c1cc(C2CCC(C)(C)CC2)nc2cc(C(=O)N3CC[C@@H](CC(=O)O)[C@@H](F)C3)nn12 (relative stereo) [Example 3]
[II] COc1cccc(F)c1N(C)c1cc(-c2cc(F)c(F)c(F)c2)nc2cc(C(=O)N(C)[C@H](C)CC(=O)O)nn12 [Example 7]
Which is greater in IC50, the first item I or the second item II ? // return label of chosen record I

====

Reported inhibition in vivo at 100 µg/mL, 1 mg/kg values follow for various molecules
- Tested on: OXA-induced enteritis in BALB/c male mice
- PROTOCOL DETAILS: Model mouse for enteritis (OXA-induced, bowel length)
- Assay type: in vivo
- MEASUREMENT CONDITIONS: po, 48 h, 0.1 mg/mL solution 10 mL/kg orally twice (1 hour before and day after OXA induction), length of colon and rectum two days after induction, read-out: Inhibitory activity on bowel shortening (%)
Express it in %; write the number only.

INSERT INTO assay_data (molecule, observed_measurement) VALUES
  ('CN(c1c(F)cccc1Cl)c1cc(-c2cc(F)c(F)c(F)c2)nc2cc(C(=O)N3CC[C@@H](CC(=O)O)[C@@H](F)C3)nn12 (relative stereo) [Example 13]', 62.2);

What value of inhibition in vivo at 100 µg/mL, 1 mg/kg has been reported for the following molecule? CO[C@H]1CN(C(=O)c2cc3nc(-c4cc(F)c(F)c(F)c4)cc(N(C)c4c(C)cccc4C)n3n2)CC[C@H]1CC(=O)O (relative stereo) [Example 2] 69.7

Can you handle COc1cccc(C)c1N(C)c1cc(-c2cc(F)c(F)c(F)c2)nc2cc(C(=O)N3CC[C@@H](CC(=O)O)[C@@H](OC)C3)nn12 (relative stereo) [Example 6] next? 79.6

Can you handle Cc1cccc(C)c1N(C)c1cc(-c2cc(F)c(F)c(F)c2)nc2cc(C(=O)N3CC[C@@H](CC(=O)O)[C@@H](F)C3)nn12 (relative stereo) [Example 1] next? 60.4

Can you handle CC(C)CN(c1cc(-c2cc(F)c(F)c(F)c2)nc2cc(C(=O)N3C[C@@H]4[C@@H](CC(=O)O)[C@@H]4C3)nn12)[C@@H](C)c1ccccc1 [Example 16] next? 74.5

Can you handle C[C@@H](c1ccccc1)N(C)c1cc(-c2cc(F)c(F)c(F)c2)nc2cc(C(=O)N3CCC(CC(=O)O)CC3)nn12 [Reference Example 1, reference compound] next? 37.3

Can you handle COc1cccc(C)c1N(C)c1cc(-c2cc(F)c(F)c(F)c2)nc2cc(C(=O)N3CC[C@@H](CC(=O)O)[C@@H](F)C3)nn12 (relative stereo) [Example 5] next? 106

====

- TGT: PAR2 (Homo sapiens)
- Construct: Human embryonic kidney cell line HEK293 cells cultured using DMEM culture medium; endogenous in cells; host or cells: HEK293
- PROTOCOL DETAILS: Intracellular calcium concentration measurement (trypsin-induced calcium elevation, FDSS6000)
- Format: cell-based
- MEASUREMENT CONDITIONS: HEK293 cells, trypsin 5 U/mL as agonist, test compound added 30 min before measurement; read-out: Inhibitory activity on intracellular calcium elevation (IC50 (nM))
PROPERTY LABEL: IC50 (nM)

Some molecules with recorded IC50:
INSERT INTO measurements (molecule, observed_measurement) VALUES
  ('CN(c1c(F)cccc1Cl)c1cc(-c2cc(F)c(F)c(F)c2)nc2cc(C(=O)N3CC[C@@H](CC(=O)O)[C@@H](F)C3)nn12 (relative stereo)', 4),
  ('Cc1cccc(C)c1N(C)c1cc(-c2cc(F)c(F)c(F)c2)nc2cc(C(=O)N3CC[C@@H](CC(=O)O)[C@@H](F)C3)nn12 (relative stereo)', 2.57),
  ('CO[C@H]1CN(C(=O)c2cc3nc(-c4cc(F)c(Cl)c(F)c4)cc(N(C)c4c(C)cccc4F)n3n2)CC[C@H]1CC(=O)O', 3.46),
  ('CO[C@H]1CN(C(=O)c2cc3nc(-c4ccc(F)c(Cl)c4)cc(N(C)c4c(C)cccc4C)n3n2)CC[C@H]1CC(=O)O (relative stereo)', 7.32),
  ('CO[C@H]1CN(C(=O)c2cc3nc(-c4cc(F)c(F)c(F)c4)cc(N(C)c4c(C)cccc4C)n3n2)CC[C@H]1CC(=O)O (relative stereo)', 7.54);

[A] CN(c1c(F)cccc1Cl)c1cc(-c2cc(F)c(F)c(F)c2)nc2cc(C(=O)N3CCC(CC(=O)O)CC3)nn12
[B] CCCN(c1cc(-c2cc(F)c(Cl)c(F)c2)nc2cc(C(=O)N3C[C@@H]4[C@@H](CC(=O)O)[C@@H]4C3)nn12)C(C)C
[C] CCCN(c1cc(-c2cc(F)c(Cl)c(F)c2)nc2cc(C(=O)N3CC[C@@H](CC(=O)O)[C@@H](C)C3)nn12)C(C)C (relative stereo)
[D] CO[C@H]1CN(C(=O)c2cc3nc(-c4cc(F)c(Cl)c(F)c4)cc(N(C)c4c(C)cccc4Cl)n3n2)CC[C@H]1CC(=O)O (relative stereo)
Rank items: key IC50, increasing. Enter labels, ranked according to the request. A, D, C, B

====

- TGT: PAR2 (Mus musculus, UniProt P55086)
- Construct: orally administered to C57BL/6J male mice (Charles River), 6-10 weeks of age; tissue Charles River; host or cells: Living C57BL/6J male mice (in vivo; saliva secretion)
- PROTOCOL DETAILS: Measurement of PAR2 agonist (SLIGRL-NH2)-induced salivation in mouse
- Assay type: in vivo
- MEASUREMENT CONDITIONS: C57BL/6J male mice, 0.3 mg/mL solution 10 mL/kg orally, 60 min before SLIGRL-NH2 i.p., saliva collected 10 min
PROPERTY LABEL: Inhibitory activity on the PAR2-dependent saliva secretion (%)

INSERT INTO assay_data (molecule, observed_measurement) VALUES
  ('Cc1n[nH]c(C(=O)N2CCN(C(=O)c3cn4nc(-c5ccc(F)cc5)cc(C(C)(C)C)c4n3)C(C)(C)C2)n1 [Comparative Compound, reference compound]', 98.0),
  ('CO[C@H]1CN(C(=O)c2cc3nc(-c4ccc(F)c(Cl)c4)cc(N(C)c4c(C)cccc4C)n3n2)CC[C@H]1CC(=O)O (relative stereo) [Example 4]', 87.1),
  ('COc1cccc(C)c1N(C)c1cc(-c2cc(F)c(F)c(F)c2)nc2cc(C(=O)N3CC[C@@H](CC(=O)O)[C@@H](OC)C3)nn12 (relative stereo) [Example 6]', 97.0),
  ('CN(c1ccccc1Cl)c1cc(-c2cc(F)c(Cl)c(F)c2)nc2cc(C(=O)N3CC[C@@H](CC(=O)O)[C@@H](F)C3)nn12 (relative stereo) [Example 14]', 92.5),
  ('CO[C@H]1CN(C(=O)c2cc3nc(-c4cc(F)c(Cl)c(F)c4)cc(N(C)c4c(C)cccc4Cl)n3n2)CC[C@H]1CC(=O)O (relative stereo) [Example 12]', 98.8),
  ('C[C@@H](c1ccccc1)N(C)c1cc(-c2cc(F)c(F)c(F)c2)nc2cc(C(=O)N3CCC(CC(=O)O)CC3)nn12 [Reference Example 1, reference compound]', 95.9),
  ('Cc1cccc(C)c1N(C)c1cc(-c2cc(F)c(F)c(F)c2)nc2cc(C(=O)N3CC[C@@H](CC(=O)O)[C@@H](F)C3)nn12 (relative stereo) [Example 1]', 91.5),
  ('CO[C@H]1CN(C(=O)c2cc3nc(-c4ccc(Cl)c(F)c4)cc(N(C)c4c(C)cccc4Cl)n3n2)CC[C@H]1CC(=O)O (relative stereo) [Example 11]', 97.8),
  ('CO[C@H]1CN(C(=O)c2cc3nc(-c4cc(F)c(Cl)c(F)c4)cc(N(C)c4c(C)cccc4F)n3n2)CC[C@H]1CC(=O)O [Example 10]', 92.2),
  ('COc1cccc(F)c1N(C)c1cc(-c2cc(F)c(F)c(F)c2)nc2cc(C(=O)N(C)[C@H](C)CC(=O)O)nn12 [Example 7]', 96.0),
  ('CN(c1c(F)cccc1Cl)c1cc(-c2cc(F)c(F)c(F)c2)nc2cc(C(=O)N3CC[C@@H](CC(=O)O)[C@@H](F)C3)nn12 (relative stereo) [Example 13]', 95.0),
  ('CN(c1c(F)cccc1Cl)c1cc(-c2cc(F)c(F)c(F)c2)nc2cc(C(=O)N3CCC(CC(=O)O)CC3)nn12 [Example 17]', 94.9);
